tested on: Erysiphae graminis; test: Fungicidal activity against Barley Powdery Mildew (BPM) disease; format: in vivo; details: Barley Powdery Mildew; concentration 2 ppm
Assign Fulfilled to entries whose BPM (Fungicidal Activities, C.V.) meets or exceeds 90%; assign Not fulfilled to the rest.

Prompt: Quick check: does CNC(=O)C(=NOC)c1ccccc1CON=Cc1cccc(OC(F)=Cc2cccc(C)c2)c1 [Compound 31] have BPM (Fungicidal Activities, C.V.) greater than or equal to 90%?
Completion: Not fulfilled

Prompt: Quick check: does CO/C=C(/C(=O)OC)c1ccccc1CON=C(C)c1cccc(OC(F)=Cc2ccccc2)c1 [Compound 40] have BPM (Fungicidal Activities, C.V.) greater than or equal to 90%?
Completion: Fulfilled

Prompt: Quick check: does COC=C(C(=O)OC)c1ccccc1CON=Cc1cccc(OC(F)=C(c2ccc(F)cc2)C(F)(F)F)c1 [Compound 113] have BPM (Fungicidal Activities, C.V.) greater than or equal to 90%?
Completion: Not fulfilled

Prompt: Quick check: does COC=C(C(=O)OC)c1ccccc1CON=C(C)c1cccc(OC(F)=C(c2ccc(C)c(C)c2)C(F)(F)F)c1 [Compound 153] have BPM (Fungicidal Activities, C.V.) greater than or equal to 90%?
Completion: Not fulfilled

Prompt: Quick check: does CON=C(C(=O)OC)c1ccccc1CON=C(C)c1cccc(OC(F)=Cc2ccc(C)cc2)c1 [Compound 66] have BPM (Fungicidal Activities, C.V.) greater than or equal to 90%?
Completion: Fulfilled

Prompt: Quick check: does COC=C(C(=O)OC)c1ccccc1CON=C(C)c1cccc(OC(F)=Cc2cccc(C)c2)c1 [Compound 41] have BPM (Fungicidal Activities, C.V.) greater than or equal to 90%?
Completion: Fulfilled

Prompt: Quick check: does CON=C(C(=O)OC)c1ccccc1CON=Cc1cccc(OC(F)=Cc2ccc3c(c2)OCO3)c1 [Compound 29] have BPM (Fungicidal Activities, C.V.) greater than or equal to 90%?
Completion: Not fulfilled

Prompt: Quick check: does COC=C(C(=O)OC)c1ccccc1CON=Cc1cccc(OC(F)=C(c2cccc(Cl)c2)C(F)(F)F)c1 [Compound 116] have BPM (Fungicidal Activities, C.V.) greater than or equal to 90%?
Completion: Not fulfilled
